The measurements presented in this section are drawn from the supplement of paper PMC10567573.

B1: SLC35F2 (parent)
chain: SFMPLVIKVTSATSVNLGILTADL

Variants of: B1
Assay Name: protein stability index of a GFP-peptide fusion (GPS, HEK-293T) (PSI 1-6); higher = more stable;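 further: lentivirally expressed fusions sorted by FACS into six bins by GFP to DsRed ratio, PSI derived from sequencing read proportions per bin multiplied by bin number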
Measurement Setup: c terminus: a fixed tail appended
protein stability index values, listed per item
Give the figure by itself; no unit, no explanation.

Example variants with recorded protein stability index:
1. N16I : 4.17
2. G18V : 2.17
3. V9F : 3.51

Let us examine a further case.
Q: Query (variant): `T21V` ; field requested: protein stability index
Ans: 2.54
